B1: FERM and PDZ domain-containing protein 4, residues 75 to 154; numbered along this chain, Q14CM0 (parent)
chain: APRKVEMRRDPVLGFGFVAGSEKPVVVRSVTPGGPSEGKLIPGDQIVMINDEPVSAAPRERVIDLVRSCKESILLTVIQP

# Variants of: B1
# run_description: abundance fitness (aPCA) (normalised: wild type 0, dead -1); higher = more abundant; growth selection in yeast, the domain comes from the species named
# applied_conditions: Homo sapiens
What abundance fitness was measured for each of the following?
Give bare numbers.

Solved entries:
variant_string: E71R
abundance fitness: -0.059

variant_string: G14S
abundance fitness: -0.273

variant_string: S29W
abundance fitness: -0.22

variant_string: G33D
abundance fitness: -0.024

variant_string: S68W
abundance fitness: -0.21

For every item below, please supply its abundance fitness.
1. I41H
2. V62E
3. E37R

Data returned:
0.028
-0.86
-0.211
